- measuredTarget: T1, mouse CAPRIN-1 on mouse cancer cells (mouse, UniProt Q60865 2-707)
- T1 construct: whole, on cells
- T1 sequence (looked up): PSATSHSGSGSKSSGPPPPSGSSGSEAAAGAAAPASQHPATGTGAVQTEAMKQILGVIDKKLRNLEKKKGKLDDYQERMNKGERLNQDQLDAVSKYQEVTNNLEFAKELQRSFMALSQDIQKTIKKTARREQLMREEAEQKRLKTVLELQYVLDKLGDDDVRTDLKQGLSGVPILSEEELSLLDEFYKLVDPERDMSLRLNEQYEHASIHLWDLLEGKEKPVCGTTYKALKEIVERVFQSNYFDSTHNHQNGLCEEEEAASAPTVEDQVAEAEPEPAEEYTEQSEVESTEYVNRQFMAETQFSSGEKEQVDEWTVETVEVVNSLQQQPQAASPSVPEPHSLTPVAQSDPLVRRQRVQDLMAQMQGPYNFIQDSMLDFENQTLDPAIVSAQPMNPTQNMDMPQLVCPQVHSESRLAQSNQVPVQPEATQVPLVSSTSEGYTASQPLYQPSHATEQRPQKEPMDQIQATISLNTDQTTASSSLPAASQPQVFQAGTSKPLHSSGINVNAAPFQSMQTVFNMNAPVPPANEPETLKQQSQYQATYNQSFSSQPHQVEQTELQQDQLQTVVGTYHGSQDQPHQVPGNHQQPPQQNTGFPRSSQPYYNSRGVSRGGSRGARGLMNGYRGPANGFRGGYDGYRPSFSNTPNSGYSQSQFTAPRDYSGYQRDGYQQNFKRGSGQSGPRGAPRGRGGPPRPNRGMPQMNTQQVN
- assayText: flow cytometry, Renca and 4T1 cells
assayReadout: binding result

* Conjugate 127 (antibody, V domains shown, human IgG1 constant regions; also called conjugate with MMAE using humanized antibody #41) VH: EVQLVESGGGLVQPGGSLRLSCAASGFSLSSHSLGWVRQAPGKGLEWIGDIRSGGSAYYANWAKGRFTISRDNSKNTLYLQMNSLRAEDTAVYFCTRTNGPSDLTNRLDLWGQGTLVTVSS VL: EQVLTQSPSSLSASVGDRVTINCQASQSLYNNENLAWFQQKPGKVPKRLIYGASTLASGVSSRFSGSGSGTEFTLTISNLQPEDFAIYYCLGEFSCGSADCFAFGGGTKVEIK | binds
* Conjugate 47 (antibody, human IgG1, V domains shown, human IgG1 constant regions; also called conjugate with MMAE using humanized antibody #41) VH: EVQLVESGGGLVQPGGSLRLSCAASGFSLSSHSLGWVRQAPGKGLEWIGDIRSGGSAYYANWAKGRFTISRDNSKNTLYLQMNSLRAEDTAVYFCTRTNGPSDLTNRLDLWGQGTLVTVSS VL: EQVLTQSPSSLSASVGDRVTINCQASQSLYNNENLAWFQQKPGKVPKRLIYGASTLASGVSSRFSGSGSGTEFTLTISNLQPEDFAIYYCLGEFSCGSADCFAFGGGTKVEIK | binds

// provenance: patent US20250281630A1
